experiment_notes: Reactive extraction of 3-HP from clarified fermentation broth into tertiary amine non-polar phase with co-solvents
Type: physicochemical
measurement_setup: sample 1: Alamine 336 with Butanol
attribute_measured: % 3-HP extracted (%)
The answer is to be given in %; state only the numeric part.

Q) Fill in: % 3-HP extracted of O=C(O)CCO [3-HP, 3-hydroxypropionic acid] is ___
A) 61

====

Tested on: Yeast strains (S288C background)
experiment_notes: microbe, parasite or virus in culture
Assay type: cell-based, Saccharomyces cerevisiae
measurement_setup: 3-HP MIC with named supplement(s) vs S288C in SD without supplement, anaerobic
attribute_measured: % Increase Over Control (%)
The answer is to be given in %; state only the numeric part.

Q) Fill in: % Increase Over Control of N[C@@H](Cc1ccccc1)C(=O)O [Phenylalanine (A)] is ___
A) 2

Q) Fill in: % Increase Over Control of NCC(=O)O [Glycine (B)] is ___
A) 60

Q) Fill in: % Increase Over Control of NCCCCCN [Cadaverine (C)] is ___
A) 60

Q) Fill in: % Increase Over Control of O=C(O)C1=C[C@@H](O)[C@@H](O)[C@H](O)C1 [Shikimate (A)] is ___
A) 60

Q) Fill in: % Increase Over Control of C[C@@H](O)[C@H](N)C(=O)O [Threonine (B)] is ___
A) 2

Q) Fill in: % Increase Over Control of CC[C@H](C)[C@H](N)C(=O)O [Isoleucine (B)] is ___
A) 2

Q) Fill in: % Increase Over Control of NCCCC[C@H](N)C(=O)O [Lysine (D)] is ___
A) 20

Q) Fill in: % Increase Over Control of NCCCCNCCCN [Spermidine (C)] is ___
A) 60

Q) Fill in: % Increase Over Control of NC(=O)NCCC[C@H](N)C(=O)O [Citrulline (C)] is ___
A) 158

Q) Fill in: % Increase Over Control of N[C@@H](CO)C(=O)O [Serine (B)] is ___
A) 20

Q) Fill in: % Increase Over Control of NC(CCS)C(=O)O (centres unmarked) [Homocysteine (B)] is ___
A) 7

Q) Fill in: % Increase Over Control of CCC(=O)C(=O)O [2-oxobutyrate (B)] is ___
A) 2

Q) Fill in: % Increase Over Control of O=C(O)O [Bicarbonate (C)] is ___
A) 140

Q) Fill in: % Increase Over Control of N[C@@H](Cc1c[nH]c2ccccc12)C(=O)O [Tryptophan (A)] is ___
A) 47

====

experiment_notes: Reactive extraction of 3-HP from clarified fermentation broth into tertiary amine non-polar phase with co-solvents
Format: physicochemical
measurement_setup: sample 2: Tripentylamine with Butanol
attribute_measured: % 3-HP raffinate (%)
The answer is to be given in %; state only the numeric part.

Q) Fill in: % 3-HP raffinate of O=C(O)CCO [3-HP, 3-hydroxypropionic acid] is ___
A) 42

====

experiment_notes: Reactive extraction of 3-HP from clarified fermentation broth into tertiary amine non-polar phase with co-solvents
Format: physicochemical
measurement_setup: sample 4: Tripentylamine with Methyl ethyl ketone
attribute_measured: % 3-HP extracted
State the value, then name its unit.

Q) Fill in: % 3-HP extracted of O=C(O)CCO [3-HP, 3-hydroxypropionic acid] is ___
A) 67%

====

Test system: Yeast strains (S288C background)
experiment_notes: microbe, parasite or virus in culture
Format: cell-based, Saccharomyces cerevisiae
measurement_setup: MIC of 3-HP; S288C, SD media plus the named supplement(s), aerobic
attribute_measured: average MIC Assay Result (g/L 3-HP) (g/L)
The answer is to be given in g/L; state only the numeric part.

Q) Test system Yeast strains (S288C background); read-out average MIC Assay Result (g/L 3-HP); what value for `NCC(=O)O` ?
A) 50

Q) Test system Yeast strains (S288C background); read-out average MIC Assay Result (g/L 3-HP); what value for `NC(=O)NCCC[C@H](N)C(=O)O` ?
A) 58

Q) Test system Yeast strains (S288C background); read-out average MIC Assay Result (g/L 3-HP); what value for O=C(O)C1=C[C@@H](O)[C@@H](O)[C@H](O)C1 [Shikimate (A)] ?
A) 80

Q) Test system Yeast strains (S288C background); read-out average MIC Assay Result (g/L 3-HP); what value for CCC(=O)C(=O)O [2-oxobutyrate (B)] ?
A) 50
